We begin with pIC50 values for Hepatocyte growth factor receptor (Homo sapiens, UniProt P08581), as collected from the published literature.
Give bare numbers, as −log10 of the molar value.

Worked set:
| given.smiles | study.target | recorded.result |
| --- | --- | --- |
| COc1ccc2c(OCc3nnc4ccc(-c5cc(C)cs5)nn34)ccnc2c1 | Hepatocyte growth factor receptor (Homo sapiens, UniProt P08581) | 9.00 |
| COc1ccc2c(OCc3nnc4ccc(-c5ccsc5)nn34)ccnc2c1 | Hepatocyte growth factor receptor (Homo sapiens, UniProt P08581) | 8.40 |
| COc1cc2c(Oc3ccc(N=Cc4c(C)[nH]n(-c5ccccc5C(F)(F)F)c4=O)cc3F)ccnc2cc1OCCCN1CCCCC1 | Hepatocyte growth factor receptor (Homo sapiens, UniProt P08581) | 8.18 |

Report pIC50 for every entry below.
1. O=C(Nc1ccc(Oc2ccnc3[nH]ccc23)c(F)c1)c1cn(-c2ccc(Cl)c(F)c2)cc(-c2ccc(F)cc2)c1=O
2. O=C(Nc1cc(Oc2ccc(NC(=O)N3CCN(c4ccccc4)C3=O)cc2F)ccn1)N1CCCC1

[reply]
1. 8.30
2. 6.64

---

Literature-derived pIC50 for Hepatocyte growth factor receptor (Homo sapiens, UniProt P08581) follows.
pIC50: −log10 of the molar value.
Tick Y if pIC50 is 7 or greater. Tick N if pIC50 is less than 7.

| compound | study.target | assigned.class |
| --- | --- | --- |
| Cc1c(C(=O)Nc2ccc(Oc3ccnc(C(=O)NCCCN4CCOCC4)c3)c(F)c2)c(=O)n(-c2ccccc2)n1C | Hepatocyte growth factor receptor (Homo sapiens, UniProt P08581) | N |
| COc1cc2c(Oc3ccc(N=Cc4c(O)n(-c5ccccc5C(F)(F)F)c(=O)n4C)cc3F)ccnc2cc1OCCCN1CCCC1 | Hepatocyte growth factor receptor (Homo sapiens, UniProt P08581) | Y |
| COc1cc2c(Oc3ccc(C4SCC(=O)N4NC(=O)Nc4ccc(F)cc4)cc3)ccnc2cc1OCCCN1CCOCC1 (stereo not drawn) | Hepatocyte growth factor receptor (Homo sapiens, UniProt P08581) | N |
| COc1cc2c(Oc3ccc(N=Cc4c(O)n(-c5ccccc5F)c(=O)n4C)cc3F)ccnc2cc1OCCCN1CCOCC1 | Hepatocyte growth factor receptor (Homo sapiens, UniProt P08581) | Y |
| Cc1c(C(=O)Nc2ccc(Oc3ccnc(C(=O)NCCN4CCOCC4)c3)c(F)c2)c(=O)n(-c2ccccc2)n1C | Hepatocyte growth factor receptor (Homo sapiens, UniProt P08581) | N |

Kindly review the next compound as well.
[ask] Tell me whether pIC50 is at least 7 here: COCCOc1ccc2nccc(Oc3ccc(NC(=O)C4=C(C)N=C(C)C(c5ccc(F)cc5)C4O)cc3F)c2n1 (stereo not drawn)
[reply] Y
